B1: TPR 5TU (parent)
chain: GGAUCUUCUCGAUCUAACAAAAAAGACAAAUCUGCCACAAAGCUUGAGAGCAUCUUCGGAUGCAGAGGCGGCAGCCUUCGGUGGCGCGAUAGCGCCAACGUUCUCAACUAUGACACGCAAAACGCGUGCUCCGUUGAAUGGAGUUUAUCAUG

# Variants of: B1
# METHOD NOTES: polymerase ribozyme fitness, log enrichment relative to wild type (log ratio); higher = more active; in vitro selection for triplet polymerase activity
Variants at the floor of the assay were thinned out.
PROPERTY: polymerase ribozyme fitness (log ratio)
A bare number is all that is needed in reply.

[
  {
    "VARIANT IDENTIFIER": "C96U A98G",
    "polymerase ribozyme fitness (log ratio)": -1.3
  },
  {
    "VARIANT IDENTIFIER": "A17G A52C",
    "polymerase ribozyme fitness (log ratio)": -0.98
  },
  {
    "VARIANT IDENTIFIER": "U6A U13G C96A C105U",
    "polymerase ribozyme fitness (log ratio)": -2.15
  },
  {
    "VARIANT IDENTIFIER": "A17G A21C C116U",
    "polymerase ribozyme fitness (log ratio)": 0.03
  },
  {
    "VARIANT IDENTIFIER": "C85U C95G A119U",
    "polymerase ribozyme fitness (log ratio)": -1.89
  },
  {
    "VARIANT IDENTIFIER": "G83C A113C",
    "polymerase ribozyme fitness (log ratio)": -3.35
  },
  {
    "VARIANT IDENTIFIER": "U4G A97G C103G",
    "polymerase ribozyme fitness (log ratio)": -3.15
  },
  {
    "VARIANT IDENTIFIER": "C76A C87U G92C",
    "polymerase ribozyme fitness (log ratio)": -2.48
  }
]

polymerase ribozyme fitness (log ratio) for U55A C96G G143A ?
-2.1

polymerase ribozyme fitness (log ratio) for A52C ?
-0.883

polymerase ribozyme fitness (log ratio) for A60G C72U G124A ?
0.612

polymerase ribozyme fitness (log ratio) for C14U U15A C93U U101A ?
-2.56

polymerase ribozyme fitness (log ratio) for A3U G58C G59C C96U C131A ?
-3.63

polymerase ribozyme fitness (log ratio) for A41G G81C U82C ?
-0.145

polymerase ribozyme fitness (log ratio) for C76A U145G ?
-0.329

polymerase ribozyme fitness (log ratio) for C36A G70U G80U C105U ?
-0.569

polymerase ribozyme fitness (log ratio) for A60G A73G C85A ?
-2.02

polymerase ribozyme fitness (log ratio) for A20G C96U ?
-0.654

polymerase ribozyme fitness (log ratio) for G48C C63A G83A G133C ?
-3.98

polymerase ribozyme fitness (log ratio) for A39G U55C U56A C116U U139G U144G ?
-2.27

polymerase ribozyme fitness (log ratio) for A19U A52G G94C ?
-1.72
